target-entity: human CD3 (human, UniProt P07766 23-207; P04234 22-171; P09693 23-182)
Sequence (P07766 23-207, chain 1 of 3): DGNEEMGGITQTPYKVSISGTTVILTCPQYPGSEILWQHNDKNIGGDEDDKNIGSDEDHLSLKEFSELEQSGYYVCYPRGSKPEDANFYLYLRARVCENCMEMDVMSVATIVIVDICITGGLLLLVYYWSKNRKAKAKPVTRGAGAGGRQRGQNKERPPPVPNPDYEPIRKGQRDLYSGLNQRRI
Sequence (P04234 22-171, chain 2 of 3): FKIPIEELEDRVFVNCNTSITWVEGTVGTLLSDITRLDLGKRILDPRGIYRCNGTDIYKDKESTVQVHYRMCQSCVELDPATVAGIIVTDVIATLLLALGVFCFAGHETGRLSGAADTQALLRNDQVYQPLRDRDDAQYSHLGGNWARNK
Sequence (P09693 23-182, chain 3 of 3): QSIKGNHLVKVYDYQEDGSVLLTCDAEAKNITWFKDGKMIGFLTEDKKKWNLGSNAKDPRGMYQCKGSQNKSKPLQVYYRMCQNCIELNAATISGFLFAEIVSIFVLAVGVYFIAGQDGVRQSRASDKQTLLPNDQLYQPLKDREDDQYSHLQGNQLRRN
assay-method-text: cell-based or functional assay
readout-kind: CD4 EC50 (nM); CD69/CD25 on human T cells, plate-coated antibody

{"binder": "mAb 73 (antibody, V domains shown) VH: EVELVESGGGLVQPGRSLRLSCAASGFTFDDKVMHWVRQAPGKGLEWVSCINWNSGHIGYADSVKGRFTISRDNARTSLYLQMNSLRPEDTALYYCVREGNYDFWSGYYRGFFDLWGRGTLVTVSS VL: DIQMTQSPSSLSASVGDRVTITCRASQGIRNDLGWYQQKPGKAPKRLIYAASSLQGGVPSRFSGSGSGTEFTLTISSLQPEDFATYYCLQHTSYPFTFGQGTKLEIK", "measured-number": 24.8}
{"binder": "mAb 95 (antibody, V domains shown) VH: QAHLVESGGGVVQPGRSLRLSCSASGFTFSGYGMHWVRQAPGKGLEWVALIYFDGRNKYYADSVKGRFTISRDNSKNTLYLQMNSLRAEDTAVYYCARGGGYNWFDPWGQGTLVTVSS VL: DIQMTQSPSSLSASVGDRVTITCRASQSINNYLSWYQQKPGKAPKLLIYLASNLQSGVPSRFSGSGSGTDFTLTISSLQPEDFATYYCQLSYRSPFTFGPGTKVDVK", "measured-number": 14.4}
{"binder": "mAb 106 (antibody, V domains shown) VH: QVQLVESGGGVVQPGRSLRLSCAASGFTFRSYGMHWVRQAPGKGLEWVAIIWYNGNKKDYVDSVKGRFTISRDNSKNTLYLQMNSLRAEDTALYYCARGPGYNWFDPWGQGTLVTVSS VL: DIQMTQSPPSLSASVGDRVTITCRASQRISSYLNWYQQKPGKAPKLLIYAASSLQSGVPSRFSGSGSGTDFTLTISSLQPEDFATYYCQQSDSFPLTFGGGTKVEII", "measured-number": 13.6}
{"binder": "mAb 117 (antibody, V domains shown) VH: EVQLVESGGGLVKTGGSLRLSCVASGFSFKKAWMNWVRQAPGKGLEWVGRIKRNTDGGTTDYAAPVKGRFTLSRDDSKNTLYLQMNSLKTEDTAVYYCTTLDSSSLYVGYYYMDVWGKGTTVTVSS VL: DIQMTQSPSSVSASVGDRVTITCRASQDINNWLAWYQQKPGKAPKLLIYTASSLQSGVPSRFSGSGSGTDFTLTISSLQPEDFATYYCQQAHSLPITFGQGTRLEIK", "measured-number": 6.49}
{"binder": "mAb 77 (antibody, V domains shown) VH: EVQLVESGGGLVQPGGSLRLSCAASGFTFSNYWMSWVRQAPGKGLEWVANIKQDGSEKYYVDSVRGRFTISRDNAKKSLYLQMNSLRAEDTAVYYCARDNSNYAYWYFDIWGRGTLVTVSS VL: DIQMTQSPSTLSVSVGDRVTITCRASQSIRKWLAWYQQKPGKAPKLLIFKASSLESGVPSRFSGSGSGTEFTLTISSLQPDDFATYYCQQYDTYSRTFGQGTKVEIK", "measured-number": 12.9}

The measured values listed here are drawn from patent US20230295310A1.
